Where do these numbers come from? They come from paper PMC9270183.

assay_system: SARS-CoV-2 Wuhan-Hu-1 RBD (SARS-CoV-2 Wuhan-Hu-1, UniProt P0DTC2)
measurement_notes: BLI
measurement_parameters: both partners purified
assay_endpoint: Kd (nM)
Quick note: give the figure in nM, leave out the unit.

Look at this binder and give its reported Kd. V051 (antibody, V domains shown, IgG; donor BRA15; source: recombinant monoclonal IgG, produced and purified as previously described) VH: QVQLVESGGGVVQPGRSLRLSCEASGFTFSTYAMHWVRQAPGKGLEWVAVISYDGNNKYYADSVKGRLTVSRDNSKNTLYLQMNSLRAEDTAEYYCARDDGGYCSSLSCPMDVWGQGTTVTVSS VL: SYELTQPPSVSVAPGKTARITCGGNSIGSKSVHWYQQRPGQAPVLVIYYDSDRPSGIPERFSGSNSGNTATLTISRVEAGDEADYYCQVWDSTLVFGGGTKLTVL
14.5

Query: Kd; subject: V031 (antibody, V domains shown, IgG; donor BRA14; source: recombinant monoclonal IgG, produced and purified as previously described) VH: QVQLVESGGGVVQPGRSLRLSCAASGFTFSSYGMHWVRQAPGKGLEWVAVISYDGSNKYYADSVKGRFAFSRDNSKNTLYLQMNSLRAEDTAVYYCAKGGYSYAYPRYYFDYWGQGTLVTVSS VL: DIQMTQSPSSLSASVGDRVTITCQASQDISNYLNWYQQKPGKAPKLLIYDASNLETGVPSRFSGSGSGTDFTFTISSLQPEDIATYYCQQHDNLPITFGQGTRLEIK
9.39

Now consider the entry below.
Give its Kd value. Item: V016 (antibody, V domains shown, IgG; donor BRA13; source: recombinant monoclonal IgG, produced and purified as previously described) VH: QVQLVESGGGVVQPGRSLRLSCAASGFTFSNYGMHWVRQAPGKGLEWVAVISYDGSNKYYADSVKGRFTISRDNSKNTLYLQMNSVRVEDTAVYYCAKGSFGYSYVHTYFDYWGQGTLVTVSS VL: DIQMTQSPSTLSASVGDRVTITCRASQSISSWLAWYQQKPGKAPKLLIYDASSLESGVPSRFSGSGSGTEFILTISSLQPDDFATYYCQQYNSPMYTFGQGTKLEIK
5.84
